These data points were gathered from ChEMBL document CHEMBL1772948.

Hi there, I'd appreciate the recorded IC50 for every entry that follows.
- System: Toxoplasma gondii
- Assay Procedure: Antiparasitic activity against Toxoplasma gondii 2F-1 expressing yellow fluorescent protein infected in HFF after 4 days
- Format: functional, organism-based
- Conditions: 2F-1, 96 h
Answers are plain numbers, in µM.

Check out these entries, answers already filled in.
{"Smiles Data": "CC[C@H]1OC(=O)[C@H](C)[C@@H](O[C@H]2C[C@@](C)(OC)[C@@H](O)[C@H](C)O2)[C@H](C)[C@@H](O[C@@H]2O[C@H](C)C[C@H](N(C)C)[C@H]2O)[C@](C)(O)C[C@@H](C)/C(=N\\OCc2ccccc2)[C@H](C)[C@@H](O)[C@]1(C)O", "Endpoint Result": 1.4}
{"Smiles Data": "C=CCO[C@]1(C)C[C@@H](C)CN(C(=O)NCc2ccccc2)[C@H](C)[C@@H](O)[C@](C)(O)[C@@H](CC)OC(=O)[C@H](C)[C@@H](O[C@H]2C[C@@](C)(OC)[C@@H](O)[C@H](C)O2)[C@H](C)[C@H]1O[C@@H]1O[C@H](C)C[C@H](N(C)C)[C@H]1O", "Endpoint Result": 6}
{"Smiles Data": "CCCO/N=C1\\[C@H](C)C[C@@](C)(O)[C@H](O[C@@H]2O[C@H](C)C[C@H](N(C)C)[C@H]2O)[C@@H](C)[C@H](O[C@H]2C[C@@](C)(OC)[C@@H](O)[C@H](C)O2)[C@@H](C)C(=O)O[C@H](CC)[C@@](C)(O)[C@H](O)[C@H]1C", "Endpoint Result": 1.6}

We now examine a further compound.
According to the records, this compound `CC[C@H]1OC(=O)[C@H](C)[C@@H](O[C@H]2C[C@@](C)(OC)[C@@H](O)[C@H](C)O2)[C@H](C)[C@@H](O[C@@H]2O[C@H](C)C[C@H](N(C)C)[C@H]2O)[C@](C)(OC)C[C@@H](C)CN[C@H](C)[C@@H](O)[C@]1(C)O` displays IC50 of 106

====

Hi there, I'd appreciate the recorded CC50 for every entry that follows.
- Tested on: HFF
- Assay Procedure: Cytotoxicity against HFF after 48 hrs by MTS assay
- Assay type: cell-based
- Conditions: human
// unit must come after the numeric part

Check out these entries, answers already filled in.
{"Smiles Data": "CC[C@H]1OC(=O)[C@H](C)[C@@H](O[C@H]2C[C@@](C)(OC)[C@@H](O)[C@H](C)O2)[C@H](C)[C@@H](O[C@@H]2O[C@H](C)C[C@H](N(C)C)[C@H]2O)[C@](C)(O)C[C@@H](C)C(=O)[C@H](C)[C@@H](O)[C@]1(C)O", "Target Desc": "HFF", "CC50": "475 µM"}
{"Smiles Data": "CC[C@H]1OC(=O)[C@H](C)[C@@H](O[C@H]2C[C@@](C)(OC)[C@@H](O)[C@H](C)O2)[C@H](C)[C@@H](O[C@@H]2O[C@H](C)C[C@H](N(C)C)[C@H]2O)[C@](C)(O)C[C@@H](C)CN(Cc2ccccc2)[C@H](C)[C@@H](O)[C@]1(C)O", "Target Desc": "HFF", "CC50": "32 µM"}
{"Smiles Data": "C=CCO[C@]1(C)C[C@@H](C)CN(C(=O)NCC)[C@H](C)[C@@H](O)[C@](C)(O)[C@@H](CC)OC(=O)[C@H](C)[C@@H](O[C@H]2C[C@@](C)(OC)[C@@H](O)[C@H](C)O2)[C@H](C)[C@H]1O[C@@H]1O[C@H](C)C[C@H](N(C)C)[C@H]1O", "Target Desc": "HFF", "CC50": "90 µM"}

We now examine a further compound.
According to the records, this compound `CC[C@H]1OC(=O)[C@H](C)[C@@H](O[C@H]2C[C@@](C)(OC)[C@@H](O)[C@H](C)O2)[C@H](C)[C@@H](O[C@@H]2O[C@H](C)C[C@H](N(C)C)[C@H]2O)[C@](C)(OC)C[C@@H](C)CN(C)[C@H](C)[C@@H](O)[C@]1(C)O` displays CC50 of 454 µM
